- measured-on: Rap guanine nucleotide exchange factor 3 (Homo sapiens) (UniProt O95398)
- experiment-summary: Counterscreen qHTS for agonist of cAMP-regulated guanine nucleotide exchange factor 3 (EPAC1) (AID 1645889); also: % of control where 0% means no effect; nearly all actives have a fitted effect of over 40% in size
- condition: EPAC1 Rap1B-BODIPY-GDP exchange, fluorescence; series mostly up to 154 µM
Inconclusive results are not listed. Calls of active or inactive are those of the source. Calls follow the shape of the dose curve; as a rule, active = well fitted activation curve with a large enough effect; inconclusive = small, poorly fitted or top-dose-only effect, or another doubt; inactive = no such curve, though single readings can be large or run the other way.
measured-attribute: activation

> print(dat)
                                   compound                          result
1  CC(C)c1nn2c(=O)cc(COC(=O)c3cccc(NC(=O)c4cccs4)c3)nc2s1                        inactive
2  Cc1ccc(N=C2NC(=O)/C(=C/C=C/c3ccco3)S2)cc1C   25.8% [at 30.8 µM] (inactive)
3  CCOC(=O)C(C)Sc1nc(-c2ccco2)cc(C(F)(F)F)c1C#N (stereo not drawn)  0.691% [at 30.8 µM] (inactive)
4  CC(=O)OC1CSC2c3ccccc3C(=O)N2Cc2sccc21 (stereo not drawn)                        inactive
5  O=S(=O)(Nc1ccc(C(O)(C(F)(F)F)C(F)(F)F)cc1)c1ccc(Cl)c2nonc12                        inactive
6     O=C(Nc1nc(-c2cc(F)ccc2F)cs1)C1=COCCO1                        inactive
7  Cc1ccc(C2N(c3ccc(Cl)cc3)C(=O)N3CCCN23)cc1 (stereo not drawn)                        inactive
8  O=C(O)C1CC(c2ccc(F)cc2)=NO1 (stereo not drawn)   21.8% [at 30.8 µM] (inactive)

[ask] What does the data say about its activation? Entry: COc1ccc(-n2nnnc2C(c2ccccc2OC(F)(F)F)N2CCN(C/C=C/c3ccccc3)CC2)cc1 (stereo not drawn)
[reply] inactive

[ask] activation for O=C(CSc1n[nH]c(=O)[nH]c1=O)Nc1ccc2c(c1)C(=O)c1ccccc1C2=O ?
[reply] inactive

[ask] Query (compound): CCN(CC)CCN(C(=O)c1cc2ccccc2cc1OC)c1nc2ccc(F)cc2s1 ; field requested: activation
[reply] inactive

[ask] Entry CCCCCC(=O)N1c2ccccc2C(C)(c2ccccc2)CC1(C)C (stereo not drawn) has what activation?
[reply] inactive

[ask] Item Cc1cc(C)cc(OCCSc2nc(-c3ccc(C(C)(C)C)cc3)nc3cc(=O)[nH]n23)c1 has what recorded activation?
[reply] inactive

[ask] Given the compound CCOC(=O)c1c(C)[nH]c(C)c1C(=O)COC(=O)c1cc(OC)cc(OC)c1 , what is its reported activation?
[reply] inactive

[ask] Need activation of CCCN(CCC)Cc1cc(=O)oc2cc(OC)ccc12 , thanks.
[reply] inactive

[ask] Item COCCCNC(=O)C(C#N)c1nc2ccccc2nc1N1CCN(Cc2ccccc2)CC1 (stereo not drawn) has what recorded activation?
[reply] inactive

[ask] Suppose we examine the compound COc1ccc(Cl)cc1NC(=O)CN1CCc2ccccc21 ; what activation value has been reported?
[reply] 14.8% [at 30.8 µM] (inactive)

[ask] # lookup: activation of Nc1ccc(N2CCCCC2)c2nonc12
[reply] 6.94% [at 30.8 µM] (inactive)

---

- measured-on: Glucocorticoid receptor (Homo sapiens)
- experiment-summary: qHTS assay for small molecule antagonists of glucocorticoid receptor signaling (AID 588533);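 also: cells stimulated with 2 nM dexamethasone as agonist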
- condition: HeLa MMTV-bla, GRE beta-lactamase ratio, antagonist mode, 18 h; series mostly up to 76.8 µM
Inconclusive results are not listed. Calls of active or inactive are those of the source. Calls follow the shape of the dose curve; as a rule, active = well fitted inhibition curve with a large enough effect in the signal ratio, with a control signal flat (not every such curve was filed as active); inconclusive = small, poorly fitted or top-dose-only effect, or effect the other way, or a change in a side signal; inactive = flat fitted curve, though single readings scatter; the % refers to the signal ratio.
Pick one and only one: active, inactive

[ask] What was the test verdict on c1ccc2c(c1)c1cccc3ccc4cccc2c4c31 ?
[reply] inactive

[ask] State the result this test recorded for CN(C)CCCCCCN(C)C .
[reply] inactive

[ask] Dear colleague, could you share the recorded outcome for c1ccc2scnc2c1 when you have a moment?
[reply] inactive

[ask] Could you check what this test reported for CCO ?
[reply] inactive

[ask] Answer briefly: the call reported for CCCN(CCC)C(=O)SCC in this assay.
[reply] inactive

[ask] Short answer needed: outcome of this test for NC1=NC(S)C2N=CN=C2N1 (stereo unspecified) ?
[reply] active

[ask] Hi, sorry to bother you, what did the test record for C=CC(=O)OCCOCCOCCOCCOC(=O)C=C ?
[reply] active

[ask] Hello, I am checking results. What call was entered for CCO[Si](CCCN)(OCC)OCC ?
[reply] inactive

[ask] Field: outcome | Entry: COC(=O)c1ccc(C)cc1
[reply] inactive

[ask] Lab log entry: COC(=O)CCCCC(=O)OC — outcome as called in the assay?
[reply] inactive

[ask] Which outcome was entered for the compound Cc1cccc(O)c1 in this test?
[reply] inactive

[ask] Recorded call for O=C(/C=C/c1ccc(O)c(O)c1)O[C@@H](C(=O)O)[C@@H](OC(=O)/C=C/c1ccc(O)c(O)c1)C(=O)O ?
[reply] inactive

[ask] Fill in: this test's call for C=Cc1ccccc1Cl is ___
[reply] inactive

[ask] Assay result, entry Nc1ccc(Cl)cc1Cl — outcome?
[reply] inactive

[ask] Which outcome was assigned to CCCCCCCCCCCCCC(=O)O in this test?
[reply] inactive

[ask] Lab log entry: C=CC(=C)CCC=C(C)C — outcome as called in the assay?
[reply] inactive

---

- Tested on: CP252
- experiment-summary: qHTS profiling for inhibitors of Plasmodium falciparum proliferation (AID 504749); also: nearly all actives have a fitted effect of over 60% in size
- condition: P. falciparum in erythrocytes, SYBR Green DNA, 72 h; series mostly up to 28.7 µM
Results filed as inconclusive are left out. The source made the active and inactive calls. Calls come from the whole dose curve; as a rule, active = well fitted inhibition curve with a large enough effect; inconclusive = small, poorly fitted or top-dose-only effect; inactive = flat fitted curve, though single readings scatter. Bridge positions count the residues as written; N and C are the ends. Square brackets hold non-standard residues; d marks the D form. Peptide text beside a SMILES is read from it. * marks the point of attachment. Octanoyl(6-Me) = CCC(C)CCCCC(=O)*; Dab = NCC[CH](N)C(=O)O
I would appreciate it if you answered using one of these outcomes: 1 (active), -1 (inactive)

[ask] Just curious, what result did CC1(C)S[C@@H]2[C@H](NC(=O)COc3ccccc3)C(=O)N2[C@H]1C(=O)O get here?
[reply] -1

[ask] Per the records of this test, what outcome belongs to Cc1cc(CC(C)CC(C)(C)C)n(O)c(=O)c1 (centres undefined) ?
[reply] 1

[ask] Recorded test outcome, item O=C(O)c1cc(O)c2c(c1)[C@H]([C@H]1c3cc(C(=O)O)cc(O)c3C(=O)c3c(O[C@@H]4OC(CO)C(O)C(O)C4O)cccc31)c1cccc(O[C@@H]3OC(CO)C(O)C(O)C3O)c1C2=O (some centres undefined)
[reply] -1

[ask] Returns: the outcome recorded for S=C1NC=NC2N=CNC12 (centres undefined) in this assay.
[reply] -1

[ask] Dear all, I need the recorded test outcome for CCC(C)CCCCC(=O)NC(CCN)C(=O)NC(C(=O)NC(CCN)C(=O)NC1CCNC(=O)C(C(C)O)NC(=O)C(CCN)NC(=O)C(CCN)NC(=O)C(CC(C)C)NC(=O)C(Cc2ccccc2)NC(=O)C(CCN)NC1=O)C(C)O (centres undefined) ({Octanoyl(6-Me)}-[Dab]T[Dab][Dab][Dab]FL[Dab][Dab]T; lactam 4-C; configuration not given here) , thank you.
[reply] -1

[ask] Tell me the recorded outcome of this test for CC(=O)O[C@@]12CO[C@@H]1C[C@H](O)[C@@]1(C)C(=O)[C@H](O)C3=C(C)[C@@H](OC(=O)C(O)[C@@H](NC(=O)OC(C)(C)C)c4ccccc4)C[C@@](O)([C@@H](OC(=O)c4ccccc4)[C@H]21)C3(C)C (some centres undefined) .
[reply] 1

[ask] Kindly provide the recorded test outcome for the following compound: CC1CCC(C(C)C)C(OC(=O)c2ccccc2O)C1 (centres undefined)
[reply] -1

[ask] Check the results log: what was the call for CCN1/C(=C/C=C/C=C/c2sc3ccccc3[n+]2CC)Sc2ccccc21 ?
[reply] 1

[ask] Outcome logged for CN(C)CCCCCCN(C)C in this assay:
[reply] -1

[ask] Which result was noted for this compound in the test: C1OCOCO1
[reply] -1

[ask] Entry CCC(=O)O[C@@H](OP(=O)(CCCCc1ccccc1)CC(=O)N1C[C@H](C2CCCCC2)C[C@H]1C(=O)O)C(C)C (some centres undefined) : call = ?
[reply] -1

[ask] Would you mind telling me which call this test gave CC(C)CN(C[C@@H](OP(=O)(O)O)[C@H](Cc1ccccc1)NC(=O)O[C@@H]1CCOC1)S(=O)(=O)c1ccc(N)cc1 ?
[reply] -1

[ask] Answer briefly: the call reported for C/C=C\c1ccc(OC)cc1 in this assay.
[reply] -1

[ask] Dear all, I need the recorded test outcome for CC(=O)OC1CC2CCC1(C)C2(C)C (centres undefined) , thank you.
[reply] -1

---

- measured-on: Cytochrome P450 3A4 (Homo sapiens) (UniProt P08684)
- Sequence (P08684 whole entry, looked up): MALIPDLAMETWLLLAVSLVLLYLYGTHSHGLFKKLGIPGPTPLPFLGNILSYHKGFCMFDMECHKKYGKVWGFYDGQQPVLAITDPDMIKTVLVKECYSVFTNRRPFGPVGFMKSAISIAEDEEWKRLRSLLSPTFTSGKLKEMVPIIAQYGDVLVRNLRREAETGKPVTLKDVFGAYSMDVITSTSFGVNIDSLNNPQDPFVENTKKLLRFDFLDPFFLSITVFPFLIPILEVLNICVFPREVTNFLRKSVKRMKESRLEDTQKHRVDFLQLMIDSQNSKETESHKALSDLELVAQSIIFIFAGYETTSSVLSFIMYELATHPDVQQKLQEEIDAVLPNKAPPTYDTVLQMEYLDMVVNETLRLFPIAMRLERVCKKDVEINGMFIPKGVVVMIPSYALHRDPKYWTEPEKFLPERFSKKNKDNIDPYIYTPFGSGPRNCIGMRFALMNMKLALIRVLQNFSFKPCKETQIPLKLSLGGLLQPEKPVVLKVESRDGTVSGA
- experiment-summary: qHTS Assay for Inhibitors and Substrates of Cytochrome P450 3A4 (AID 884); also: nearly all actives have a fitted effect of over 50% in size
- condition: recombinant CYP3A4, Luciferin-PPXE luminescence; series mostly up to 57.1 µM
Inconclusive results are not listed. The source made the active and inactive calls. Calls follow the shape of the dose curve; as a rule, active = well fitted inhibition curve with a large enough effect; inconclusive = small, poorly fitted or top-dose-only effect; inactive = no such curve, though single readings can be large or run the other way.
// one of active, inactive, no free text

[ask] Status in this test for COc1cccc(-c2nc(N(C)C)c3ccccc3n2)c1 ?
[reply] active

[ask] Please share the test call associated with COc1cccc(-c2ccc3ncnc(NCc4ccc(OC)cc4OC)c3c2)c1 .
[reply] active

[ask] Test call for this compound, please: COc1ccc(Oc2ncc3nc(C)c(=O)n(Cc4cccs4)c3n2)cc1
[reply] active

[ask] Assay outcome for COc1ccc2[nH]cc(CCNc3ncncc3-c3ccccc3C)c2c1 : what was it?
[reply] active

[ask] What is the recorded call for this compound in the test? CC(C)=CCCC(C)CCO (stereo not given)
[reply] inactive

[ask] What did the test return for COc1cc2c(cc1OC)C1C(=O)c3ccc4c(c3OC1CO2)C=CC(C)(C)O4 (stereo not given) ?
[reply] active

[ask] Please let me know the test result on file for O=C1c2ccccc2C(=O)C1c1ccc2ccccc2n1 .
[reply] active

[ask] For CCCCCCCCCCCCC[N+](C)(C)Cc1ccccc1 , what call appears in the results of this test?
[reply] inactive

[ask] Kindly provide the recorded test outcome for the following compound: COc1cccc(-c2nc(NC3CC3)c3ccccc3n2)c1
[reply] active

[ask] Tell me the recorded outcome of this test for Clc1cc(Cl)c(Cl)cc1Cl .
[reply] inactive

[ask] Identify the outcome logged in this assay for the compound shown: CCCCCCCCCCCCCCC1CO1 (stereo not given)
[reply] inactive

[ask] Dear colleague, could you share the recorded outcome for O=C(c1cnccn1)N1CCC[C@@]2(CCN(c3cccc(-c4ccccc4)c3)C2)C1 when you have a moment?
[reply] active

[ask] What is the recorded call for this compound in the test? OCCNCCO
[reply] inactive

[ask] Outcome logged for O=C1C=C(NCCc2cc(Br)c(O)c(Br)c2)C(=O)c2ncccc21 in this assay:
[reply] active

[ask] Test call, this compound: O=S(=O)(O)C1CCNCC1
[reply] inactive
